# method.summary: BSK_SAg_Proliferation: Cell Proliferation Assessment in the BioMAP Diversity Plus: SAg Assay (AID 2283095);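 also: relative cell number as total protein by SRB absorbance in sub-confluent culture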
# test.parameters: primary human HUVEC with PBMC
The source made the active and inactive calls. The calls were made as follows: active = hit-call score of the fitted dose curve at least 0.9, where 1 is the maximum; inactive = score below 0.9.
Mark one answer only. Choices: t = active, f = inactive

Name the outcome recorded for O=c1c(O)c(-c2ccc(O)c(O)c2)oc2cc(O)cc(O)c12 in the assay.
t

Name the outcome recorded for Cc1ccc(N(C)C)cc1 in the assay.
f

Name the outcome recorded for Oc1ccc2ccccc2c1N=Nc1ccccc1 in the assay.
t

Name the outcome recorded for CC(CO)OC(C)CO (stereo not drawn) (tested in a mixture with another compound) in the assay.
f

Name the outcome recorded for Oc1ccc2c(c1)OC[C@@H](N1CCC(O)(c3ccc(F)cc3)CC1)[C@H]2O in the assay.
f

Name the outcome recorded for CNC(=O)[C@H]1O[C@@H](n2cnc3c(NCc4cc(Cl)ccc4OCc4cc(C)no4)ncnc32)[C@H](O)[C@@H]1N in the assay.
f

Name the outcome recorded for CN1CCCC1=O in the assay.
f

Name the outcome recorded for COc1ccc(S(=O)(=O)N2C(=O)[C@@](c3ccccc3OC)(N3C[C@H](O)C[C@H]3C(=O)N(C)C)c3cc(Cl)ccc32)c(OC)c1 in the assay.
t

Name the outcome recorded for CCc1c(C(=O)NN2CCCCC2)nn(-c2ccc(Cl)cc2Cl)c1-c1ccc(Br)cc1 in the assay.
t

Name the outcome recorded for CCCCC(CC)COC(=O)CC(C(=O)OCC(CC)CCCC)S(=O)(=O)O (stereo not drawn) in the assay.
t

Name the outcome recorded for Cc1ccc2ncccc2c1 in the assay.
f

Name the outcome recorded for C=CCOC(=O)c1ccccc1C(=O)OCC=C in the assay.
f

Name the outcome recorded for CC(=O)Oc1ccccc1C(=O)O in the assay.
f

Name the outcome recorded for Nc1nc(N)c2nc(CNc3ccc(C(=O)N[C@@H](CCC(=O)O)C(=O)O)cc3)cnc2n1 in the assay.
t

Name the outcome recorded for CCOC(=O)C(C)(C)Oc1ccc(Cl)cc1 in the assay.
f

Name the outcome recorded for O=c1[nH]cc(F)c(=O)[nH]1 in the assay.
t

Name the outcome recorded for Cc1cccc([N+](=O)[O-])c1C in the assay.
f

Name the outcome recorded for Clc1cc(Cl)c(Cl)cc1Cl in the assay.
f

Name the outcome recorded for CCCCCCCC=O in the assay.
f

Name the outcome recorded for CN[C@H]1CC[C@@H](c2ccc(Cl)c(Cl)c2)c2ccc(S(N)(=O)=O)cc21 in the assay.
t

Name the outcome recorded for c1cc(-c2ccncc2)ccn1 in the assay.
f

Name the outcome recorded for COC(=O)c1ccc(O)cc1 in the assay.
f

Name the outcome recorded for Cc1cc(NC(=O)C(=O)O)cc(C)c1Oc1ccc(O)c2c1CCC2 in the assay.
f

Name the outcome recorded for CC(=O)OCCOCCOCCOC(C)=O in the assay.
f

Name the outcome recorded for CCCCCCCCCCCCCO in the assay.
f

Name the outcome recorded for Cc1cc(=O)[nH]c(=S)[nH]1 in the assay.
f

Name the outcome recorded for CCCc1cc(=O)[nH]c(=S)[nH]1 in the assay.
f

Name the outcome recorded for CCCCCCCCCCCCCCCC in the assay.
f

* * *

# method.summary: Tanguay_ZF_120hpf_PE_legacy: (Legacy) Oregon State University Tanguay Lab 120 Hour Post-fertilization zebrafish Assay for Pericardial Edema (AID 2283640)
Results filed as inconclusive are left out. The source made the active and inactive calls. Rule for the calls: active = hit-call score of the fitted dose curve at least 0.9, where 1 is the maximum; inconclusive = response in the unintended direction; inactive = score below 0.9.
readout: outcome

# annotated cases, reported outcome shown
INSERT INTO results (given_smiles, meas_value) VALUES
  ('c1cc(-c2ccncc2)ccn1', 'inactive'),
  ('CCOC(=O)CCC(=O)OCC', 'inactive'),
  ('CCCCCCCCCCO', 'inactive'),
  ('Clc1cc(Cl)c(Cl)cc1Cl', 'inactive'),
  ('CC(=O)OCCOCCOCCOC(C)=O', 'inactive');

Dear colleague, please send me the reported outcome for Cc1nc(C)nc(N2C[C@@H](C)N(c3ccnc([C@@H](C)O)n3)[C@@H](C)C2)n1 when you can.
inactive

Dear colleague, please send me the reported outcome for COc1ccc(S(=O)(=O)N2C(=O)[C@@](c3ccccc3OC)(N3C[C@H](O)C[C@H]3C(=O)N(C)C)c3cc(Cl)ccc32)c(OC)c1 when you can.
inactive

Dear colleague, please send me the reported outcome for Cc1ccc(Cl)cc1 when you can.
inactive

Dear colleague, please send me the reported outcome for CN1CCN(Cc2cc(-c3ccc4[nH]c(=O)oc4c3)co2)[C@@H](c2ccc(F)cc2)C1 when you can.
inactive

Dear colleague, please send me the reported outcome for CCc1c(C(=O)NN2CCCCC2)nn(-c2ccc(Cl)cc2Cl)c1-c1ccc(Br)cc1 when you can.
inactive

Dear colleague, please send me the reported outcome for COc1cc(S(=O)(=O)O)c(C)cc1N=Nc1c(O)ccc2cc(S(=O)(=O)O)ccc12 when you can.
inactive

Dear colleague, please send me the reported outcome for O=[N+]([O-])C(CO)(CO)CO when you can.
inactive

Dear colleague, please send me the reported outcome for CCCCN(CCCC)CCCC when you can.
inactive
